Listed here are molecules together with their documented pIC50.
tested.on: CYP26A1 (Homo sapiens (Human))
method.notes: CYP26A1 inhibition assay (9-cis-4-OH-RA formation from 9-cis-RA, recombinant microsomes)
Assay type: biochemical
test.context: Table 3, unit inferred; read-out: CYP26A1 (IC50)
pIC50: −log10 of the molar value.
value.type: pIC50

molecule | value.type | val
CC1(C)CCC(C)(C)c2cc(C3(c4ccc(C(=O)O)cc4)OCCO3)ccc21 [drawing 145] | pIC50 | 5.48
C=C(c1ccc(C(=O)O)cc1)c1cc2c(cc1C)C(C)(C)CCC2(C)C | pIC50 | 4.91
CC1(C)CCC(C)(C)c2cc(C3(c4ccc5cc(C(=O)O)ccc5c4)SCCS3)ccc21 [drawing 146] | pIC50 | 7.21

====

tested.on: CYP2C9 (Homo sapiens (Human), UniProt P11712)
Sequence (P11712 whole entry): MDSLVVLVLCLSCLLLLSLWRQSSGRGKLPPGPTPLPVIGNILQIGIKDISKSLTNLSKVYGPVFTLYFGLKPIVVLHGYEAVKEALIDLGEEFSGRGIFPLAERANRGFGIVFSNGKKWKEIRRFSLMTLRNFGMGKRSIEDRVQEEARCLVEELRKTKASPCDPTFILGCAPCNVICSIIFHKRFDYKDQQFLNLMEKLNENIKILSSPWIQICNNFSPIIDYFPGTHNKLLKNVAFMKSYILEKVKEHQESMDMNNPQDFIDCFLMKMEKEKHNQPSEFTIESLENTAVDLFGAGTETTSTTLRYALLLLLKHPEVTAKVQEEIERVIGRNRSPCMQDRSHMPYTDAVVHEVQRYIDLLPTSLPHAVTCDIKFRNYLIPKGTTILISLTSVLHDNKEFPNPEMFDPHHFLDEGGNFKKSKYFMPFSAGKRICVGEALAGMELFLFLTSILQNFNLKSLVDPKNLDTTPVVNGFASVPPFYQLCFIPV
method.notes: Inhibition of CYP2C9 in pooled human liver microsomes (diclofenac probe)
test.context: read-out: CYP2C9 IC50 nM; pooled human liver microsomes, diclofenac 5 μM
Listed here are molecules together with their documented IC50.

molecule | unit.label | IC50
CC(C(c1ccc(Nc2nc3ccccc3s2)cc1)n1ccnc1)N(C)C (stereo not drawn) | nM | 5760
Clc1cccc(C(c2ccc3[nH]cnc3c2)n2ccnc2)c1 (stereo not drawn) | nM | 1630
CCC(CC)[C@H](c1ccc(Nc2nc3ccccc3s2)cc1)n1cncn1 | nM | 680

====

tested.on: CYP26B1 (Homo sapiens (Human))
method.notes: CYP26B1 inhibition assay (9-cis-4-OH-RA formation from 9-cis-RA, recombinant microsomes)
Type: biochemical
test.context: Table 4, acidic compounds, unit inferred; read-out: CYP26B1 (IC50)
value.type: IC50

molecule | tested.on | value.type | val
CC1(C)CCC(C)(C)c2cc(C3(c4ccc(C(=O)O)cc4)SCCS3)ccc21 | CYP26B1 (Homo sapiens (Human)) | IC50 | 1090 nM
CC1(C)CCC(C)(C)c2cc(C3(c4ccc(C(=O)O)cc4)OCCO3)ccc21 [drawing 148] | CYP26B1 (Homo sapiens (Human)) | IC50 | 12600 nM
CC1(C)CCC(C)(C)c2cc(C3(c4ccc5cc(C(=O)O)ccc5c4)OCCO3)ccc21 | CYP26B1 (Homo sapiens (Human)) | IC50 | 1030 nM

====

tested.on: CYP26A1 (Homo sapiens (Human), UniProt O43174)
Sequence (O43174 whole entry): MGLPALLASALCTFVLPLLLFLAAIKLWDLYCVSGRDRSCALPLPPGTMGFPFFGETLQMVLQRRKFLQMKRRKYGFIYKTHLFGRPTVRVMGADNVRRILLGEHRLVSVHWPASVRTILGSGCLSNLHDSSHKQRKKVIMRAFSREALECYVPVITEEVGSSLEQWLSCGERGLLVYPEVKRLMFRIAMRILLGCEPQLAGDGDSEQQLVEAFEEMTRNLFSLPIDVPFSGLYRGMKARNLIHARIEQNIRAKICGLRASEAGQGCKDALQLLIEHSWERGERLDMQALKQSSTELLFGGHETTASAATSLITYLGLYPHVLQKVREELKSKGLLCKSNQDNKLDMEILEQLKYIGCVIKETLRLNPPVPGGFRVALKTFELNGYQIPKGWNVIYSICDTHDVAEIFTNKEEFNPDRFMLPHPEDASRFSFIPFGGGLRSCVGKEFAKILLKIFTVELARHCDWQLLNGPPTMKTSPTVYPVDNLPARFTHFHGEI
method.notes: CYP26A1 inhibition assay (9-cis-4-OH-RA formation from 9-cis-RA, recombinant microsomes)
Format: biochemical
test.context: ratio of IC50 values, Table 2
Rule: condition met for CYP26A1/CYP26B1 not less than 7, condition not met for anything less.

compound | assigned.category
CC1(C)CCSc2ccc(C#Cc3ccc(C(=O)O)cn3)cc21 | condition met
CC1(C)CCC(C)(C)c2cc(NC(=O)c3ccc(C(=O)O)cc3)ccc21 | condition not met
COC(=O)c1ccc(OC/C(=N/O)c2ccc3c(c2)C(C)(C)CCC3(C)C)cc1 | condition met
CC1(C)CCC(C)(C)c2cc(C(=O)Nc3ccc(C(=O)O)cc3)ccc21 | condition not met
CC1(C)CCC(C)(C)c2cc(/C(COc3ccc(C(=O)O)cc3)=N\O)ccc21 | condition not met
CC1(C)C(=O)C(C)(C)c2cc(C(=O)Nc3ccc(C(=O)O)cc3)ccc21 | condition not met
C/C(=C\c1ccc(C(=O)O)cc1)c1ccc2c(c1)C(C)(C)CCC2(C)C | condition not met
CC1(C)CCC(C)(C)c2cc(C(=O)COc3ccc(C(=O)O)cc3)ccc21 | condition not met
CC1(C)CCC(C)(C)c2cc(C#Cc3ccc(C(=O)O)cc3)ccc21 | condition met
CC1(C)CCC(C)(C)c2cc(C(O)COc3ccc(C(=O)O)cc3)ccc21 (centres unmarked) | condition not met

====

tested.on: CYP26A1 (Homo sapiens (Human), UniProt O43174)
method.notes: CYP26A1 inhibition assay (9-cis-4-OH-RA formation from 9-cis-RA, recombinant microsomes)
Assay type: biochemical
test.context: Table 5; read-out: CYP26A1
Listed here are compounds together with their documented log10 IC50.
value.type: log10 IC50 (log10 of the value in nM)

smiles.entry | log10 IC50
CC1(C)CCC(C)(C)c2cc(C3(c4ccc(CCC(=O)O)cc4)OCCO3)ccc21 | 2.53
COc1ccc(Nc2ccc(CCC(=O)O)cc2)cc1C12CC3CC(CC(C3)C1)C2 | 1.71
CC1(C)CCC(C)(C)c2cc(C3(c4ccc(/C=C/C(=O)O)cc4)OCCO3)ccc21 | 2.38
O=C(O)/C=C/c1ccc(Nc2ccc(O)c(C34CC5CC(CC(C5)C3)C4)c2)cc1 | 2.37
O=C(O)CCc1ccc(-c2ccc(O)c(C34CC5CC(CC(C5)C3)C4)c2)cc1 | 2.50
O=C(O)CCc1ccc(Nc2ccc(O)c(C34CC5CC(CC(C5)C3)C4)c2)cc1 | 3.24
COc1ccc(Nc2ccc(/C=C/C(=O)O)cc2)cc1C12CC3CC(CC(C3)C1)C2 | 2.86
CCC(CC)[C@H](c1ccc(Nc2nc3ccccc3s2)cc1)n1cncn1 | 0.71
CC1(C)CCC(C)(C)c2cc(C3(c4ccc(/C=C/C(=O)O)cc4)SCCS3)ccc21 | 0.78

====

tested.on: CYP26B1 (Homo sapiens (Human), UniProt Q9NR63)
Sequence (Q9NR63 whole entry): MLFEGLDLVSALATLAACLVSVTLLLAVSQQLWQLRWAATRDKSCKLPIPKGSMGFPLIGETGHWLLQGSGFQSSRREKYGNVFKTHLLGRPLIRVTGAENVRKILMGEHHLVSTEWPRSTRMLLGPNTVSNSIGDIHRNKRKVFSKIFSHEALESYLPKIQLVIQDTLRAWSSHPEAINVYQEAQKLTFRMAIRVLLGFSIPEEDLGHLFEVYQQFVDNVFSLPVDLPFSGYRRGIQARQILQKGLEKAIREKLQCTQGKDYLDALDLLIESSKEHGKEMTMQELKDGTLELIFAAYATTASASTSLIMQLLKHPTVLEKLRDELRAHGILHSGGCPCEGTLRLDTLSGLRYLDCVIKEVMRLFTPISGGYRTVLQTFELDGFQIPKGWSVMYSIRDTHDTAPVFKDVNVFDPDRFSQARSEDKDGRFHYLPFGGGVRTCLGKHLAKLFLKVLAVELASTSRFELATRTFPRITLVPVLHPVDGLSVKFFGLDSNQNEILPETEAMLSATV
method.notes: CYP26B1 inhibition assay (9-cis-4-OH-RA formation from 9-cis-RA, recombinant microsomes)
Assay type: biochemical
test.context: Table 5; read-out: CYP26B1

smiles.entry | IC50 (nM)
COc1ccc(Nc2ccc(/C=C/C(=O)O)cc2)cc1C12CC3CC(CC(C3)C1)C2 | 87
O=C(O)/C=C/c1ccc(Nc2ccc(O)c(C34CC5CC(CC(C5)C3)C4)c2)cc1 | 95
O=C(O)CCc1ccc(Nc2ccc(O)c(C34CC5CC(CC(C5)C3)C4)c2)cc1 | 108
